Task for the reader: assign each of the following molecules its reported ILS at 10 mg/kg.
test system: Mus musculus; experiment: Antitumor activity against ip implanted L1210 leukemia in mouse after ip administration of 10 mg/kg for 5 days expressed as increase in mean life span; assay type: functional; details: Mus musculus, L1210, ip, 120 h, route intraperitoneal

Some entries whose results are on file:
Smiles Representation	Target Entity	ILS at 10 mg/kg
Cc1c2cc[n+]([C@H]3O[C@H](CO)[C@@H](O)[C@H]3O)cc2c(C)c2c1[nH]c1ccc(O)cc12.[Br-]	Mus musculus	138%
Cc1c2cc[n+]([C@H]3O[C@H](CO)[C@@H](O)[C@@H]3O)cc2c(C)c2c1[nH]c1ccc(O)cc12.[Br-]	Mus musculus	> 379%
Cc1c2cc[n+]([C@@H]3O[C@H](CO)[C@@H](O)[C@@H](O)[C@H]3O)cc2c(C)c2c1[nH]c1ccc(O)cc12.[Br-]	Mus musculus	> 254%

Next item in the queue.
Problem: Which measured ILS at 10 mg/kg belongs to Cc1c2cc[n+]([C@@H]3OC[C@@H](O)[C@H](O)[C@@H]3O)cc2c(C)c2c1[nH]c1ccc(O)cc12.[Cl-] , tested on Mus musculus?
Solution: > 238%
